Each entry below lists one item and its recorded Growth Rate value.
- Tested on: Fibroblast
- protocol_notes: Incucyte cell viability with human fibroblast; further: unitless GR value; below 1 slowed growth and below 0 cell loss
- Format: toxicity, cell-based
- condition_set: 12 h, 10 µM, compound concentration 10 uM, replicate number 1, timepoint 12 hours
endpoint_name: Growth Rate

> print(dat)
                         structure.notation  assayed.system  experimental.value
1  Nc1nc(CC(=O)Nc2ccc(CCNC[C@H](O)c3ccccc3)cc2)cs1      Fibroblast                 0.9
2  COc1c(C)cc(NC(=O)c2nn(Cc3ccc(F)cc3)c3c2CN(C(=O)c2ccc[nH]2)C[C@]3(C)C(N)=O)cc1C      Fibroblast               -0.33
3  CC(C)CCC[C@@H](C)[C@H]1CC[C@H]2[C@@H]3[C@H](O)C=C4C[C@@H](O)CC[C@]4(C)[C@H]3CC[C@]12C      Fibroblast                0.24
4  CC(C)Oc1ccc(-c2nc(-c3cccc4c3CC[C@@H]4NCCO)no2)cc1C#N      Fibroblast                0.12
5  CCNC(=O)c1cc2c(-c3cc(C(C)(C)O)ccc3Oc3c(C)cc(F)cc3C)cn(C)c(=O)c2[nH]1      Fibroblast                0.68
6  CN1CCc2cc(Cl)c(O)cc2[C@@H](c2ccccc2)C1.Cl      Fibroblast                   1
7  COc1ccncc1C(=O)NC(=O)Nc1ccc(-c2ccccc2)c(C(F)(F)F)c1      Fibroblast                0.58
8  CC(C)CC(=O)Nc1cncc(-c2ccc3[nH]nc(-c4nc5c(-c6cccc(F)c6)cncc5[nH]4)c3c2)c1      Fibroblast                0.36

###

- System: U2OS
- protocol_notes: Incucyte cell viability with U2OS; further: unitless GR value; below 1 slowed growth and below 0 cell loss
- Format: toxicity, cell-based
- condition_set: human, 12 h, 10 µM, compound concentration 10 uM, replicate number 1, timepoint 12 hours
Would you please tag the item Condition met when its Growth Rate is 0.5 or above, and Condition not met when it is below?

structure_notation	assigned_label
Cc1ccccc1C#Cc1ccc(CCC(=O)O)cc1	Condition met
N=C(N)NCCC[C@@H](NC(=O)C(c1ccccc1)c1ccccc1)C(=O)NCc1ccc(CNC(N)=O)cc1.O=C(O)C(F)(F)F.O=C(O)C(F)(F)F	Condition met
CCC(=O)NCC[C@@H]1CCc2ccc3c(c21)CCO3	Condition met
CN(C)c1ccnc2sc3c(=O)n(N4CCCCCC4)cnc3c12	Condition met
O=C(O)CCn1c2c(c3ccccc31)C[C@H](NS(=O)(=O)c1ccc(F)cc1)CC2	Condition met
CCCCCCNC(=O)Nc1ccc(S(=O)(=O)Nc2ccc(CCNC[C@H](O)COc3ccc(O)cc3)cc2)cc1	Condition not met
CC(=O)O[C@H]1C(=O)[C@@]2(C)[C@H]([C@H](OC(=O)c3ccccc3)[C@]3(O)C[C@H](OC(=O)[C@H](O)[C@@H](NC(=O)c4ccccc4)c4ccccc4)C(C)=C1C3(C)C)[C@]1(OC(C)=O)CO[C@@H]1C[C@@H]2O	Condition not met

###

- Test system: HEK-293T
- protocol_notes: Incucyte cell viability with HEK293T; further: unitless GR value; below 1 slowed growth and below 0 cell loss
- Format: toxicity, cell-based
- condition_set: human, 12 h, 10 µM, compound concentration 10 uM, replicate number 2, timepoint 12 hours
endpoint_name: Growth Rate

compound	assayed_system	endpoint_name	experimental_value
CN(CCN1CCC(OC(=O)Nc2ccccc2-c2ccccc2)CC1)C(=O)c1ccc(CN2CCC(C(N)=O)CC2)cc1 [REVEFENACIN]	HEK-293T	Growth Rate	0.59
COc1ccncc1C(=O)NC(=O)Nc1ccc(-c2ccccc2)c(C(F)(F)F)c1	HEK-293T	Growth Rate	0.74
CO/C1=C/C(C)=C\[C@@H](C)[C@@H](O)[C@@H](C)C/C(C)=C\C=C/[C@H](OC)C([C@@H](C)[C@@H](O)[C@H](C)[C@@]2(O)C[C@@H](O)[C@H](C)[C@@H](C(C)C)O2)OC1=O (some centres undefined)	HEK-293T	Growth Rate	-0.69
CCCCCCCCCCCCCCC[C@@H](O)[C@@H](N)COP(=O)(O)O	HEK-293T	Growth Rate	0.76

###

- Tested on: Fibroblast
- protocol_notes: Incucyte cell viability with human fibroblast; further: unitless GR value; below 1 slowed growth and below 0 cell loss
- Assay type: toxicity, cell-based
- condition_set: 6 h, 10 µM, compound concentration 10 uM, replicate number 2, timepoint 6 hours
Where a SMILES comes first, the peptide text is derived from it. [ ]: non-standard residue; d: D form. Arg(Me) = CNC(=N)NCCC[C@H](N)C(=O)O; d3Pal = N[C@H](Cc1cccnc1)C(=O)O; azaGly = NNC(=O)O

compound	Growth Rate
COc1cc(OC2CCN(C(C)=O)CC2)ccc1C(=O)N1CCC(N2C(=O)OCc3ccccc32)CC1	-0.41
CNC(=N)NCCC[C@H](NC(=O)[C@H](CC(C)C)NC(=O)NNC(=O)[C@H](Cc1ccccc1)NC(=O)[C@H](CO)NC(=O)[C@H](CC(N)=O)NC(=O)[C@@H](Cc1cccnc1)NC(=O)[C@H](N)Cc1ccc(O)cc1)C(=O)NCC(N)=O [KISS1-543] (H-[dY][d3Pal]NSF[azaGly]L[Arg(Me)]G-NH2)	0.8
Cl.NCCc1ccc(O)c(O)c1 [DOPAMINE HYDROCHLORIDE]	0.26

###

- Tested on: HEK-293T
- protocol_notes: Incucyte cell viability with HEK293T; further: unitless GR value; below 1 slowed growth and below 0 cell loss
- Assay type: toxicity, cell-based
- condition_set: human, 0 h, 10 µM, compound concentration 10 uM, replicate number 2, timepoint 0 hours
Recorded Growth Rate for the following compounds
endpoint_name: Growth Rate

> print(dat)
                                   compound  assayed.system  experimental.value
1  COC(c1ccccc1)(c1ccccc1)[C@H](Oc1nc(C)cc(C)n1)C(=O)O [AMBRISENTAN]        HEK-293T                0.79
2  Cc1c(C(=O)Nc2ccc(N3C[C@@H](C)O[C@@H](C)C3)nc2)cccc1-c1ccc(OC(F)(F)F)cc1 [SONIDEGIB]        HEK-293T               -0.95
3    CCCN1CCO[C@H]2c3cc(O)ccc3OC[C@@H]21.Cl        HEK-293T               -0.13
4  CCC(=O)NCC[C@@H]1CCc2ccc3c(c21)CCO3 [RAMELTEON]        HEK-293T               -0.36
5            CCCN[C@H]1CCc2nc(N)sc2C1.Cl.Cl        HEK-293T                0.77
6  CCc1nnc(NS(=O)(=O)c2ccc(NC(=S)NC(=O)/C=C/c3ccc(F)cc3)cc2)s1        HEK-293T                0.59
7  COc1cc(C(=O)N(CCCc2ccccc2)Cc2ccc(CC(=O)O)cc2)cc(OC)c1C        HEK-293T                0.84
8  Cc1ccccc1N1CCN(S(=O)(=O)C[C@]23CC[C@H](C[C@@H]2NC(=O)[C@@H](N)CCS(C)(=O)=O)C3(C)C)CC1.Cl        HEK-293T                0.34
9  CN(C)CCCc1cc(C(=O)Nc2ccc(-c3ccncc3)cc2)ccc1O.Cl.Cl        HEK-293T                0.49

###

- Tested on: Fibroblast
- protocol_notes: Incucyte cell viability with human fibroblast; further: unitless GR value; below 1 slowed growth and below 0 cell loss
- Format: toxicity, cell-based
- condition_set: 12 h, 10 µM, compound concentration 10 uM, replicate number 1, timepoint 12 hours
This listing pairs compounds with measured Growth Rate.
endpoint_name: Growth Rate

> print(dat)
                                   compound  experimental.value
1  Cn1cnc(-c2cc3nccc(Oc4ccc(NC(=S)NC(=O)Cc5ccccc5)cc4F)c3s2)c1               -0.11
2    N#Cc1cc(F)cc(-c2nc(-c3ccc(F)cn3)no2)c1                0.63
3  CN(C)CCn1cc(S(=O)(=O)c2cccc(F)c2)c2cccnc21.Cl.Cl                0.56
4  N#Cc1cc2c(OCC(O)CN3CCN(C(c4ccccc4)c4ccccc4)CC3)cccc2[nH]1 (racemic)                0.52
5                   C=CCNc1ncnc2ccc(Br)cc12                0.47

###

- System: Fibroblast
- protocol_notes: Incucyte cell viability with human fibroblast; further: unitless GR value; below 1 slowed growth and below 0 cell loss
- Assay type: toxicity, cell-based
- condition_set: 24 h, 10 µM, compound concentration 10 uM, replicate number 2, timepoint 24 hours
Where a SMILES comes first, the peptide text is derived from it. [ ]: non-standard residue; d: D form. Arg(Me) = CNC(=N)NCCC[C@H](N)C(=O)O; d3Pal = N[C@H](Cc1cccnc1)C(=O)O; azaGly = NNC(=O)O
The compounds listed here are annotated with their Growth Rate.

compound	assayed_system	Growth Rate
O=C(Nc1cc(C(F)(F)F)ccc1N1CCN(Cc2ccccn2)CC1)c1ccc(-c2ccncc2)o1	Fibroblast	0.56
CC(C)CC(=O)Nc1cncc(-c2ccc3[nH]nc(-c4nc5c(-c6cccc(F)c6)cncc5[nH]4)c3c2)c1	Fibroblast	-0.02
Cc1ccccc1N1CCN(S(=O)(=O)C[C@]23CC[C@H](C[C@@H]2NC(=O)[C@@H](N)CCS(C)(=O)=O)C3(C)C)CC1.Cl	Fibroblast	0.76
COc1ccc(NC(=O)c2ccc(-c3ccc(-c4noc(C)n4)cc3C)cc2)cc1OCCN(C)C.Cl	Fibroblast	-0.52
O=C(NCCO)c1cccc(-c2cc(Nc3ccc(OC(F)(F)F)cc3)ncn2)c1	Fibroblast	0.06
CC(C)n1cc(-c2ccc(N3CCN(C)CC3)c(NC(=O)c3ccc(-c4ccncc4)o3)c2)cn1	Fibroblast	0.94
Cc1ccccc1-c1cc(N2CCN(C)CC2)ncc1N(C)C(=O)C(C)(C)c1cc(C(F)(F)F)cc(C(F)(F)F)c1	Fibroblast	0.71
OCCCNc1cc(-c2ccnc(Nc3cccc(Cl)c3)n2)ccn1	Fibroblast	-0.06
O=S(=O)(c1ccccc1)c1cnc2c(N3CCNCC3)cccc2c1 [INTEPIRDINE]	Fibroblast	0.98
CCCCCCCCCCCCCCC[C@@H](O)[C@@H](N)COP(=O)(O)O	Fibroblast	0.73
CNC(=N)NCCC[C@H](NC(=O)[C@H](CC(C)C)NC(=O)NNC(=O)[C@H](Cc1ccccc1)NC(=O)[C@H](CO)NC(=O)[C@H](CC(N)=O)NC(=O)[C@@H](Cc1cccnc1)NC(=O)[C@H](N)Cc1ccc(O)cc1)C(=O)NCC(N)=O [KISS1-543] (H-[dY][d3Pal]NSF[azaGly]L[Arg(Me)]G-NH2)	Fibroblast	0.72
CC(=O)Nc1cccc2c1c(Sc1ccc(Cl)cc1)c(C)n2CC(=O)O	Fibroblast	0.26
CCC(C)n1ncn(-c2ccc(N3CCN(c4ccc(OC[C@@H]5CO[C@@](Cn6cncn6)(c6ccc(Cl)cc6Cl)O5)cc4)CC3)cc2)c1=O.CCC(C)n1ncn(-c2ccc(N3CCN(c4ccc(OC[C@H]5CO[C@](Cn6cncn6)(c6ccc(Cl)cc6Cl)O5)cc4)CC3)cc2)c1=O (stereo not given in full)	Fibroblast	0.95
C(#Cc1cccc(CN2CCOCC2)c1)CCN1CCCCC1	Fibroblast	0.26
CC(C)(O)C(=O)N1CCN(c2ccc(C(F)(F)F)c(C3=C(c4c[nH]c5ccccc45)C(=O)NC3=O)c2)CC1	Fibroblast	-0.09
N[C@@]1(C(=O)O)CC[C@H]2[C@H](C(=O)O)[C@H]21	Fibroblast	0.35
CSCC[C@H](NC=O)C(=O)N[C@@H](CC(C)C)C(=O)N[C@@H](Cc1ccccc1)C(=O)O	Fibroblast	0.36
CN(C)CCn1cc(S(=O)(=O)c2cccc(F)c2)c2cccnc21.Cl.Cl	Fibroblast	0.57
CC(C)CCC[C@@H](C)[C@H]1CC[C@H]2[C@@H]3[C@H](O)C=C4C[C@@H](O)CC[C@]4(C)[C@H]3CC[C@]12C	Fibroblast	0.43
CN1CCC(C(=O)c2cccc(NC(=O)c3c(F)cc(F)cc3F)n2)CC1	Fibroblast	0.78
CCc1nn2c(C)cc(C)nc2c1Cc1ccc(-c2nnc(C3CCNCC3)o2)cc1	Fibroblast	0.65
CC(=O)NCC(=O)N1[C@@H]2CC[C@H]1c1ccc(Nc3ncc(C(F)(F)F)c(NC4CCC4)n3)cc12	Fibroblast	0.62
Cc1ccccc1C(=O)Nc1ccc(C(=O)N2CCCC(N(C)C)c3ccccc32)cc1.Cl (stereo not given)	Fibroblast	0.07
O=C(Nc1cc(-c2cn[nH]c2)ccc1N1CCOCC1)c1ccc(-c2ccc3ncccc3c2)o1	Fibroblast	0.83
CC[C@H](NC(=O)c1c(C)c(-c2ccccc2)nc2ccccc12)c1ccccc1	Fibroblast	0.98
Cl.Clc1cccc(Cl)c1NC1=NCCN1 [CLONIDINE HYDROCHLORIDE]	Fibroblast	0.47
CC(C)Oc1ccc(Cc2ccc(NC3=NCCN3)cc2)cc1	Fibroblast	0.46
Cc1c(C(=O)NN2CCCCC2)nn(-c2ccc(Cl)cc2Cl)c1-c1ccc(Cl)cc1	Fibroblast	0.42
CC(C)OC(=O)N1CCC(Oc2ncnc3c2cnn3-c2ccc(S(C)(=O)=O)cc2F)CC1	Fibroblast	0.69
O=c1c2cccn2c2ccccc2n1CCCN1CCC(c2ccc(Cl)cc2)CC1	Fibroblast	-0.26
NCCc1cn(S(=O)(=O)c2c(Cl)nc3sccn23)c2ccccc12.O=C(O)C(=O)O	Fibroblast	-0.31
COC[C@@H](c1ccc(C(F)(F)F)cc1)N1CCN(C2(C)CCN(C(=O)c3c(C)ncnc3C)CC2)C[C@@H]1C.O=C(O)/C=C\C(=O)O [VICRIVIROC MALEATE]	Fibroblast	0.83
CCCCOCCOc1nc(-c2ccc(C(=O)O)c(F)c2)sc1C	Fibroblast	0.7
Cn1cc(-c2ccc3occ(-c4cccc(-c5ccncc5)c4)c3n2)cn1	Fibroblast	0.02
CC(C)(C)c1ccc(CSc2cnn(C(C)(C)C)c(=O)c2Cl)cc1	Fibroblast	0.08
